B1: NF2 (merlin) isoform 7, human, full length (507 aa, lacks exons 2-3 = isoform-1 residues 39-121; exon-16 C-terminus), P35240-4 (parent)
chain: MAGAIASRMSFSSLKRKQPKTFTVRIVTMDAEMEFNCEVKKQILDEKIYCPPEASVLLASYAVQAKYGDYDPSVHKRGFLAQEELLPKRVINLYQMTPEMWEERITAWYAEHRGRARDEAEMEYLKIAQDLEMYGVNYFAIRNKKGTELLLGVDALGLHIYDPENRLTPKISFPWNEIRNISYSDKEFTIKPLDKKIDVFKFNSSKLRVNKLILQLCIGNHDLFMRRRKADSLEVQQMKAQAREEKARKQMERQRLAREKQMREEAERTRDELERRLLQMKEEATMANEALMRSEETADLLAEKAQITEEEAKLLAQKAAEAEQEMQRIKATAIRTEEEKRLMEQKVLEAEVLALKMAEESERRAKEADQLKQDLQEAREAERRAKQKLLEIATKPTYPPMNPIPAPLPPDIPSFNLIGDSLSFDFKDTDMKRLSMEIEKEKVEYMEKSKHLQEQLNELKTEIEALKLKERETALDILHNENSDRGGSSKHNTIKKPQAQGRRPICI

# Variants of: B1
# ASSAY REMARKS: reverse yeast two-hybrid deep mutational scan (rY2H-seq): NF2 isoform 7 mutant library as bait mated with wild-type prey strains; selection on medium lacking adenine for non-interacting pairs; NextSeq paired-end sequencing; enrichment vs …
# MEASUREMENT CONDITIONS: with PIK3R3 (phosphatidylinositol 3-kinase regulatory subunit gamma), Q92569; yeast diploids after mating (RBait_S3 x RPrey_S3), 30 °C, selection for reporter genes on NB agar; human tyrosine kinase ABL2 co-expressed as the active kinase …; HIGHER = WEAKER BINDING (the opposite of display enrichments): higher = stronger loss of interaction: reverse Y2H selects yeast in which bait and prey do NOT interact (growth without adenine), so a …; hits-only table; scale: rY2H score; numbering: uniprot, sequence starts at 1
MEASURED ATTRIBUTE: enrichment

Short answer for F415E : enrichment was 1.83

Short answer for P403R : enrichment was 3.96

Short answer for D484E : enrichment was 2.39

Short answer for T168A : enrichment was 6.22

Short answer for I329A : enrichment was 1.64

Short answer for E367A : enrichment was 2.99

Short answer for Q498E : enrichment was 1.97

Short answer for V63K : enrichment was 2

Short answer for S73L : enrichment was 5.98

Short answer for L390C : enrichment was 10.7

Pending variant:
Short answer for M401K : enrichment was 2.17

Entry source: paper PMC10244618
